Test: self-splicing fitness, log relative to wild type (ln ratio); higher = more splicing; Tetrahymena group I intron in knt gene, E. coli kanamycin selection, DiMSum; sequences stand for … in CUCUCU…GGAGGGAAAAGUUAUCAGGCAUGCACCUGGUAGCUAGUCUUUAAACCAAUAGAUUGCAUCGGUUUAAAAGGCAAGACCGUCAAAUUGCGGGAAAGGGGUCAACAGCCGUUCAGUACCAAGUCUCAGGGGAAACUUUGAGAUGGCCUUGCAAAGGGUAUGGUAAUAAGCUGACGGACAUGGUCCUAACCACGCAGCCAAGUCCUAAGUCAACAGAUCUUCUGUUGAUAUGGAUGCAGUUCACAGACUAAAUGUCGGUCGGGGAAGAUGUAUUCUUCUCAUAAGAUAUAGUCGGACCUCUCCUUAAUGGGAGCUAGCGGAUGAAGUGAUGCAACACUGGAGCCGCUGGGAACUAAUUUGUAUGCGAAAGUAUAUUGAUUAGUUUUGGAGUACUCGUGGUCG;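 note: selection with 25 µg/mL kanamycin versus none on LB agar overnight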
Conditions: 30 °C
measured.endpoint: self-splicing fitness (ln)

INSERT INTO assay_data (residues, recorded_measurement) VALUES
  ('UACGAGCAAUAUUACGGCCG', -0.704),
  ('AACGAGCAAUAUUACGCUGG', -3.72),
  ('CACAAGCAAUAUUACGUUAU', -2.95),
  ('ACACAGCAAUAUUACGGGCG', -0.978),
  ('CGGUAGCAAUAUUACGAUGG', -0.774),
  ('UUACAGCAAUAUUACGUUGC', -3.56),
  ('GGACAGCAAUAUUACGAUCU', -2.62),
  ('AUAUAGCAAUAUUACGCGAC', -2.73),
  ('UACAAGCAAUAUUACGUGGC', -3),
  ('CGAGAGCAAUAUUACGGCCG', -3.76),
  ('AGGCAGCAAUAUUACGACUA', 0.127),
  ('CUCGAGCAAUAUUACGUUUC', -1.78),
  ('GCCCAGCAAUAUUACGAGCA', -1.49),
  ('ACCGAGCAAUAUUACGCCAU', -4.46),
  ('AUGCAGCAAUAUUACGACUG', -3.44),
  ('ACUAAGCAAUAUUACGGCCA', -0.942),
  ('GACAAGCAAUAUUACGUCGC', -3.86),
  ('UGUGAGCAAUAUUACGGCCU', -1.89),
  ('GGGGAGCAAUAUUACGCCUG', -2.33),
  ('CCUAAGCAAUAUUACGGAUA', -4.31),
  ('GAGUAGCAAUAUUACGGUGU', -2.71),
  ('ACUUAGCAAUAUUACGAAAG', -2.69),
  ('AAUCAGCAAUAUUACGGGUC', -2.03),
  ('AUACAGCAAUAUUACGCCUU', -0.541),
  ('CUAGAGCAAUAUUACGUACC', -4.52),
  ('GCCAAGCAAUAUUACGUCUA', -1.15),
  ('GGCUAGCAAUAUUACGCUAU', -1.3),
  ('UCAUAGCAAUAUUACGUUUU', -2.81),
  ('UUGCAGCAAUAUUACGUUCG', -1.16),
  ('UAUAAGCAAUAUUACGCCGG', -0.545),
  ('GGCUAGCAAUAUUACGACCG', -0.745),
  ('CCAGAGCAAUAUUACGUUGG', -3.93),
  ('UAAUAGCAAUAUUACGCAGG', -1.82),
  ('CCCUAGCAAUAUUACGAUUG', -3.45);
